Cited source for all entries: the supplement of paper PMC7125110

B1: glmS ribozyme (parent)
chain: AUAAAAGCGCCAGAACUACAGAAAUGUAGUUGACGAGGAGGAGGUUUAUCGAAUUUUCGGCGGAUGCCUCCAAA

- Variants of: B1
- MEASUREMENT_DESCRIPTION: self-cleavage kobs at 10000 uM GlcN6P; higher = faster cleavage; RNA array
- RUN_CONDITIONS: with glucosamine-6-phosphate
This sample holds only a part of the variants without activity.
Would you kindly list self-cleavage kobs at 10000 uM GlcN6P for each of these variants?
Quick note: give the figure in s⁻¹, leave out the unit.

Consider the variant shown here: G29C A52G What is its recorded self-cleavage kobs at 10000 uM GlcN6P? 0.000104

Item: A14U G32A 0.0102

Item: A6U G38U A48U A52G C68A U69G 8.71e-05

Item: U31A C67G 0.000456

Item: U54C G66C 0.00113

Item: A15G G41C 0.000544

Item: G29C U56A 0.00136

Item: G66C C67U 2.37e-05

Item: C50G C58A G62C G63C C70A 9.95e-05

Item: A14G U31G G41C 6.26e-05

Item: G37A A42G 0.00549
